Source listed as the supplement of paper PMC6555819.

Some sequences, each annotated with its measured PBM binding z-score.
Test system: LXRb:RXRa (NR concentration 270 nM, RXRa partner concentration 90 nM)
Experiment notes: PBM binding z-score (relative to random genomic background probes); higher = stronger binding; sequences stand for … in GC…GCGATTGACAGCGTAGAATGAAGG
Form field (numeric): enter value without unit.

Please review the entries below; each comes with its answer.
INSERT INTO results (sequence_input, measured_metric, numeric_readout) VALUES
  ('CGAACGAGCGCATGAGTTGATAGCAAATGCCGAT', 'PBM binding z-score', -0.865),
  ('AGAATGAGGTTAAGATCAGGGAAACAGAATACAT', 'PBM binding z-score', 1.9);

Return reported PBM binding z-score; argument: TCTGCCAGGTCAACGATGGTCAGCTAATCTGCTA 2.23

Look at this sequence and give its reported PBM binding z-score. ACAGACAGGTGATGAAGGTACCTCAGGCTATCAT -0.411

Need PBM binding z-score of CGTCCAAGGTCGAGGTCAGTGAAAGAGACTCGAA , thanks. 2.74

Entry AGTCAAAGTTTACTAGGTAACGTAAGATTCAGCT : reported PBM binding z-score = ? 0.287

====

Test system: RARb:RXRa (NR concentration 270 nM, RXRa partner concentration 90 nM)
Experiment notes: PBM binding z-score (relative to random genomic background probes); higher = stronger binding; sequences stand for … in GC…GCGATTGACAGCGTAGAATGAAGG
Readings of PBM binding z-score for the listed sequences
Could you respond with only the numeric value?

Worked cases, answers included:
INSERT INTO results (sequence_input, measured_metric, numeric_readout) VALUES
  ('ATATGTAGGTTAAGGGTCATTCACGTTGGTTCGC', 'PBM binding z-score', 3.54),
  ('AGAATGAGGTGAAGATCAGGGAAACAGAATACAT', 'PBM binding z-score', 1.32),
  ('CCAGACAGGTGAAAGGTAATTCAGTCTGGTACGC', 'PBM binding z-score', 0.958),
  ('GGAACTAGGGCAAGTTGATAGCAGAGTTTGATGG', 'PBM binding z-score', 1.69),
  ('ACTAGTTGGTCAGGTGAGGTCACACACAATTCGG', 'PBM binding z-score', 3.44),
  ('CCTTACGGGTCAAAGTTATAGCACGGGTGGTACG', 'PBM binding z-score', 3.7);

GET /values?readout=PBM binding z-score&system=RARb:RXRa (NR concentration 270 nM, RXRa partner concentration 90 nM)&item= CAGCCTAGGTCAGGACCAGTATAGGAGGAACGTT 3.26

Checklist item: PBM binding z-score tested on RARb:RXRa (NR concentration 270 nM, RXRa partner concentration 90 nM), entry CCGAGTAGGTTATGGGGCATTCAGGCAACGGTGA , value? 0.99

Which measured PBM binding z-score belongs to CTCGAAAGGTCGGTTGAGGTGAGGATACGGATAA , tested on RARb:RXRa (NR concentration 270 nM, RXRa partner concentration 90 nM)? 3.18

====

Measured PBM binding z-score, listed per entry.
System: PPARg:RXRa DBDmut IVT, anti-RXR (DBD mutation: RXRa K156A/R161A, NR concentration 270 nM, RXRa partner concentration 90 nM)
Experiment notes: PBM binding z-score (relative to random genomic background probes); higher = stronger binding; sequences stand for … in GC…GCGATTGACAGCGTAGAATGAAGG
Answer using only a numeral; do not append any unit.

INSERT INTO assay_data (sequence_input, numeric_readout) VALUES
  ('ATATGTAGGTTAAGGGTCATTCGGGTTGGTTCGC', 7.7),
  ('GCTCTGAGGACAAGGTCAGAGCTTTGTCCGTAGA', 0.898),
  ('GCTTGTAGATCAAGGTTAAGAACGACTAAGCTAA', 1.08),
  ('ATCTCTAGGTAAGACACAGTTCAGTGAAGAACGC', 2.01),
  ('ATCTCTGGGTAACCAAGTTCAGTGAATGCCGAAC', 3.23);

In the following, a different sequence is considered.
Which PBM binding z-score is reported for this sequence? CGTCCAAGTTCAACTAAGGTAACGTAAAGCACGC 0.15
